B1: DUSP5 (parent)
chain: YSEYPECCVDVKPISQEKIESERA

Variants of: B1
Experiment: protein stability index of a GFP-peptide fusion (GPS, HEK-293T) (PSI 1-6); higher = more stable;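 further: lentivirally expressed fusions sorted by FACS into six bins by GFP to DsRed ratio, PSI derived from sequencing read proportions per bin multiplied by bin number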
Conditions: c terminus: a fixed tail appended
Classification field: 1 = protein stability index at or over 4; -1 = protein stability index under 4.

Input: Exam item: decide whether the reported protein stability index for YSEYPECCVDVKPISQEKNESERA [I19N] is at least 4.
Output: 1

Input: Exam item: decide whether the reported protein stability index for YSEYPECCVDVKPCSQEKIESERA [I14C] is at least 4.
Output: -1

Input: Exam item: decide whether the reported protein stability index for YSEYPGCCVDVKPISQEKIESERA [E6G] is at least 4.
Output: -1

Input: Exam item: decide whether the reported protein stability index for DSEYPECCVDVKPISQEKIESERA [Y1D] is at least 4.
Output: 1

Input: Exam item: decide whether the reported protein stability index for YSEYPECCVDVKPFSQEKIESERA [I14F] is at least 4.
Output: 1

Input: Exam item: decide whether the reported protein stability index for CSEYPECCVDVKPISQEKIESERA [Y1C] is at least 4.
Output: 1

Input: Exam item: decide whether the reported protein stability index for ASEYPECCVDVKPISQEKIESERA [Y1A] is at least 4.
Output: 1

Input: Exam item: decide whether the reported protein stability index for YSEYSECCVDVKPISQEKIESERA [P5S] is at least 4.
Output: 1

Input: Exam item: decide whether the reported protein stability index for YSEYPECCVDEKPISQEKIESERA [V11E] is at least 4.
Output: 1

Input: Exam item: decide whether the reported protein stability index for YSEYPECCVDVKPISQEKYESERA [I19Y] is at least 4.
Output: -1

Input: Exam item: decide whether the reported protein stability index for YSEYPECCVDVKPISQEKIQSERA [E20Q] is at least 4.
Output: -1

Input: Exam item: decide whether the reported protein stability index for YSEYFECCVDVKPISQEKIESERA [P5F] is at least 4.
Output: -1

Input: Exam item: decide whether the reported protein stability index for YSEYPECSVDVKPISQEKIESERA [C8S] is at least 4.
Output: 1

Input: Exam item: decide whether the reported protein stability index for YSEYPECCVLVKPISQEKIESERA [D10L] is at least 4.
Output: -1

Input: Exam item: decide whether the reported protein stability index for YSEYPECCVDVKPISQEKEESERA [I19E] is at least 4.
Output: 1

src = the supplement of paper PMC10567573
